Reference source for all entries: ChEMBL document CHEMBL3792341

target: Fibroblast growth factor receptor 1 (Homo sapiens) (UniProt P11362); assay: Inhibition of human FGFR1 using myelin basic protein as substrate at 1 uM measured after 20 mins at 30 degC by liquid scintillation counting method in presence of [gamma-32P]-ATP
Sequence (P11362 22-822 limits assumed): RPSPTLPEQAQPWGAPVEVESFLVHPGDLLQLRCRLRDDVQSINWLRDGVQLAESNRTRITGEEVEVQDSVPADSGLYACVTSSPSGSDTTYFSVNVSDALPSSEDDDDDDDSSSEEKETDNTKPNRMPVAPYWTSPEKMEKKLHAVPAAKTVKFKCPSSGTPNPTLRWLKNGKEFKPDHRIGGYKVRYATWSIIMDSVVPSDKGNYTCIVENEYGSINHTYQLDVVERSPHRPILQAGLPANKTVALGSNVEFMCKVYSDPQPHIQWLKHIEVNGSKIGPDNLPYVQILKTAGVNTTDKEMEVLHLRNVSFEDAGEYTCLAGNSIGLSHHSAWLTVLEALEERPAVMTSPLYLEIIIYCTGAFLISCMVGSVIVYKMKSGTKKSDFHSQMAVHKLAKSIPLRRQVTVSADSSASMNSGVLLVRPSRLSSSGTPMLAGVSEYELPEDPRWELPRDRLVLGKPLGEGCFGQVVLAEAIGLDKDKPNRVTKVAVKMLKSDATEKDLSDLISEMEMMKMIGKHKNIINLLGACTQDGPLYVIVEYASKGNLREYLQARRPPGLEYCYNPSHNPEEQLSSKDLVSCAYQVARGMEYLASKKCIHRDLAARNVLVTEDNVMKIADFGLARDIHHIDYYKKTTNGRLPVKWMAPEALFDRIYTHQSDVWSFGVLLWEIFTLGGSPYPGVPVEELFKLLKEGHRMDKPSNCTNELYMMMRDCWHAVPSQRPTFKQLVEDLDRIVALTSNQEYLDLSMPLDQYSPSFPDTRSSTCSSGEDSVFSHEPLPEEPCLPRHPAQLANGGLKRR
inhibition overview

COc1cc2ncn(Cc3ccc(Br)cc3)c(=O)c2cc1OC
14%

**Query** So what's the measured inhibition for this one? `Clc1ccc(Nc2nnc(Cc3ccncc3)c3ccccc23)cc1`
**Result** 31%

**Query** Request the reported inhibition associated with `COc1cc2ncn(CC(=O)c3ccc(Br)cc3)c(=O)c2cc1OC`
**Result** 7%

**Query** I am curious: what inhibition value has been reported for `COc1cc2ncn(Cc3cccc(-c4ccccc4)c3)c(=O)c2cc1OC` ?
**Result** 13%

**Query** # lookup: inhibition of `O=c1c2cc3c(cc2ncn1Cc1ccc(Br)cc1)OCO3`
**Result** 1%
